The reported numbers originate from ChEMBL document CHEMBL3603837.

procedureText: AUC in rat at 1 mg/kg, iv
Assay type: ADME, organism-based
conditionInfo: in vivo
quantity: AUC (ng·h/mL)

{"chemicalString": "COc1cc(F)ccc1-c1c(CN(C)Cc2ccccc2)[nH]c2c(NS(C)(=O)=O)cc(C(C)C)cc12", "quantity": "AUC", "measValue": 315}

----------
assayedTarget: Mineralocorticoid receptor (Homo sapiens, UniProt P08235)
Sequence (P08235 whole entry): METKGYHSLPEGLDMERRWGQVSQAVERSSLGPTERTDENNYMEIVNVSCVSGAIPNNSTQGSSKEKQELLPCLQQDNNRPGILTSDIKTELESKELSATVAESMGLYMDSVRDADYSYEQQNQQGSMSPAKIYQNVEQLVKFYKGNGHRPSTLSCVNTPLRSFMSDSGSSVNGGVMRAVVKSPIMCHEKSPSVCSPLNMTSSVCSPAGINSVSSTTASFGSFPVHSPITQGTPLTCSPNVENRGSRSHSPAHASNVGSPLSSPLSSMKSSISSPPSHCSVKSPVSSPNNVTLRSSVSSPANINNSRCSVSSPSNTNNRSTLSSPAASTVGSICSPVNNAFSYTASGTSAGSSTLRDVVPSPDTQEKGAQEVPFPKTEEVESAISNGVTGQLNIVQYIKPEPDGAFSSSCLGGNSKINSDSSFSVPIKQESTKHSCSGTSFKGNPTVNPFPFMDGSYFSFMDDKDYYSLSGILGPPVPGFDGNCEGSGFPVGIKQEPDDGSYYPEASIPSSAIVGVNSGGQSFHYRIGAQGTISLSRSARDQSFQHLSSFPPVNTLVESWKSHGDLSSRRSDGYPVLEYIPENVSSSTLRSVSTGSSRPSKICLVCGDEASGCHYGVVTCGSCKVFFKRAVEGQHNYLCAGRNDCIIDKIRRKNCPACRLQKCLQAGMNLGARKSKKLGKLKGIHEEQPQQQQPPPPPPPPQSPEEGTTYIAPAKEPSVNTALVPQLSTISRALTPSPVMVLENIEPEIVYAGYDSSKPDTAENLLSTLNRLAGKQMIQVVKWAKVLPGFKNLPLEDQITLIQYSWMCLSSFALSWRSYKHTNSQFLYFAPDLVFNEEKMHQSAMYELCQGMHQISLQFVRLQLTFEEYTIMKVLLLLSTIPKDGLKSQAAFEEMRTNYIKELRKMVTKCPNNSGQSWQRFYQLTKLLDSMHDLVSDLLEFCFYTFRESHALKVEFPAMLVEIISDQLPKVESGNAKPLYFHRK
pKi: −log10 of the molar value.
quantity: pKi

{"chemicalString": "CS(=O)(=O)Nc1cccc2c(-c3cccc(Cl)c3)c[nH]c12", "measValue": 8.68}
{"chemicalString": "COc1ccc(F)cc1-c1c(-c2ccccc2)[nH]c2c(NS(C)(=O)=O)cccc12", "measValue": 5.41}
{"chemicalString": "COc1cc(F)ccc1-c1c(Cc2ccccc2)[nH]c2c(NS(C)(=O)=O)cc(C(C)C)cc12", "measValue": 5.37}
{"chemicalString": "COc1ccc(F)cc1-c1c[nH]c2c(NC(C)=O)cccc12", "measValue": 5.19}
{"chemicalString": "COc1cc(F)ccc1-c1c(CN(C)Cc2ccccc2)[nH]c2c(N)cc(F)cc12", "measValue": 5.67}

----------
assayedTarget: Glucocorticoid receptor (Homo sapiens, UniProt P04150)
Sequence (P04150 whole entry): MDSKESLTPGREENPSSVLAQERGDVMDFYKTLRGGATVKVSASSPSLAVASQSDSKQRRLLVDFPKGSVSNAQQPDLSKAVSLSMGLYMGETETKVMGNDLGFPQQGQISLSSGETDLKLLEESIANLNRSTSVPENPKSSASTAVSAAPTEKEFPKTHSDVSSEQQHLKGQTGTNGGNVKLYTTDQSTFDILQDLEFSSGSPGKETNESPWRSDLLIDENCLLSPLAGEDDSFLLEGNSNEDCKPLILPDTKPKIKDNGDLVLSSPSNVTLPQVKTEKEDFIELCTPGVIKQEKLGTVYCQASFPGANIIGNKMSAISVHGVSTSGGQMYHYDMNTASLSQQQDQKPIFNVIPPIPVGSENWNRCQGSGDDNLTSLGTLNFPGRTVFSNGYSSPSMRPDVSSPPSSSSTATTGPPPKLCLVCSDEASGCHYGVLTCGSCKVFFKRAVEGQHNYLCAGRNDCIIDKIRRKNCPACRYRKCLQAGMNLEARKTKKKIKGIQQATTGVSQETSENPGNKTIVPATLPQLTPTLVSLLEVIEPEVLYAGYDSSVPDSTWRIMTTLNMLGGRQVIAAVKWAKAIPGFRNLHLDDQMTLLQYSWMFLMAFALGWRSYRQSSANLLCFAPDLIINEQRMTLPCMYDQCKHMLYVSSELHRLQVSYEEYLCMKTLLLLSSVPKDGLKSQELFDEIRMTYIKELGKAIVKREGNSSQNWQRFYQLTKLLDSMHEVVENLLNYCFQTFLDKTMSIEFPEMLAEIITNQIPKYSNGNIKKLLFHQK

{"chemicalString": "COc1cc(F)ccc1-c1c(Cc2ccccc2)[nH]c2c(NS(C)(=O)=O)cc(C(C)C)cc12", "assayedTarget": "Glucocorticoid receptor (Homo sapiens, UniProt P04150)", "valueUnit": "nM", "Ki": 0.543}
{"chemicalString": "COc1cc(NS(C)(=O)=O)c2[nH]c(C)c(-c3ccccc3)c2c1", "assayedTarget": "Glucocorticoid receptor (Homo sapiens, UniProt P04150)", "valueUnit": "nM", "Ki": 39.8}
{"chemicalString": "COc1ccc(F)cc1-c1c(-c2ccccc2)[nH]c2c(NS(C)(=O)=O)cccc12", "assayedTarget": "Glucocorticoid receptor (Homo sapiens, UniProt P04150)", "valueUnit": "nM", "Ki": 53.7}
{"chemicalString": "COc1cc(F)ccc1-c1c(CN(C)Cc2ccccc2)[nH]c2c(NS(C)(=O)=O)cc(C(C)C)cc12", "assayedTarget": "Glucocorticoid receptor (Homo sapiens, UniProt P04150)", "valueUnit": "nM", "Ki": 1.22}
